The values you see were collected from patent US20130217702A1.

target: human recombinant bradykinin B1 receptor (Homo sapiens, UniProt P46663); construct: host or cells: CHO cells, clone hB1-A5; assay: Human recombinant bradykinin B1 receptor competitive radioligand binding; details: reference compounds, binding test, measured by the applicant; read-out: Ki
Sequence (P46663 whole entry): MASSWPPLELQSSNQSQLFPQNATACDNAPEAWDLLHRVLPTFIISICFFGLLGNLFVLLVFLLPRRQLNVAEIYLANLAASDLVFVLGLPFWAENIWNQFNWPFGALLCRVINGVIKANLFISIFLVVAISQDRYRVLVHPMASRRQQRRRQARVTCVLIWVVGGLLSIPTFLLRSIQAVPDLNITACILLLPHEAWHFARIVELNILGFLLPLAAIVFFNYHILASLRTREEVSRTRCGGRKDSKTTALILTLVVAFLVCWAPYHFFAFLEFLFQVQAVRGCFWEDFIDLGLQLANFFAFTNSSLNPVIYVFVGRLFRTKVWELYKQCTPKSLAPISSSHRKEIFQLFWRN
Assay Metric: Ki (nM)
Reply numerically in nM, unit not repeated.

# Compound, Ki / nM
data = [
    ("CN1CCN(C(=O)C2CCN(S(=O)(=O)c3ccc(NCC(c4ccccc4)c4ccccc4)c(C(=O)N4CCOCC4)c3)CC2)CC1 [NVP-SAA164, reference compound]", 8),
]

Now examine the next entry.
Return reported Ki; argument: CCCN1C(=O)[C@H](NC(=O)Nc2ccc(N3CCC(N4CCCCC4)CC3)cc2)N=C(c2ccc(C)cc2)c2ccccc21 [reference compound] 13.4

---

molecular target: recombinant human B1 receptors (Homo sapiens, UniProt P46663); construct: host or cells: CHO (CHO-B1); assay: Functional assay: antagonist potency by cytosolic calcium measurement (plate reader fluorimeter) in CHO-B1 cells, agonist LysDABK; type: cell-based; settings: CHO-B1 cells, inhibition of LysDABK (EC80)-evoked [Ca2+]i elevation; read-out: B1 func.
Sequence (P46663 whole entry): as above
Assay Metric: IC50

Solved entries (count: 3):
# Smiles Code, Tested Target, Measured
measured = [
    ("COC(=O)c1cc2ccccc2n1-c1ccc(CNC(=O)C2(NC(=O)c3cc(OC)no3)CC2)cc1", "recombinant human B1 receptors (Homo sapiens, UniProt P46663)", "< 20 nM"),
    ("Cc1nc(-c2c(Cl)c3ccccc3n2-c2ccc(CNC(=O)C3(NC(=O)CC(F)(F)F)CC3)c(F)c2)no1", "recombinant human B1 receptors (Homo sapiens, UniProt P46663)", "< 20 nM"),
    ("Cc1cnc(C(=O)NC2(C(=O)NCc3ccc(-n4c(-c5nnn(C)n5)c(Cl)c5ccccc54)cc3)CC2)cn1", "recombinant human B1 receptors (Homo sapiens, UniProt P46663)", "20 to 100 nM"),
]

Now examine the next entry.
Return reported IC50; argument: "COc1cc(C(=O)NC2(C(=O)NCc3ccc(-n4c(-c5nnn(C)n5)c(Cl)c5cc(F)ccc54)cc3F)CC2)on1" < 20 nM

---

A collection of molecules and their measured Ki
target: human recombinant bradykinin B1 receptor (Homo sapiens, UniProt P46663); construct: host or cells: CHO cells, clone hB1-A5; test: Human recombinant bradykinin B1 receptor competitive radioligand binding; conditions: hB1 expressed in CHO cells, [3H]-[Des-Arg10] Kallidin radioligand; read-out: B1 binding

Solved entries (count: 2):
# Smiles Code, Measured
rows = [
    ("Cc1nc(-c2c(Cl)c3cc(F)ccc3n2-c2ccc(CNC(=O)C3(NC(=O)c4cccnc4F)CC3)cc2)no1", "< 20 nM"),
    ("Cc1nc(-c2cc3cc(F)ccc3n2-c2ccc(CNC(=O)C3(NC(=O)c4cncc(C(F)(F)F)c4)CC3)cc2)no1", "< 20 nM"),
]

Return reported Ki; argument: "COc1ccc2c(c1)cc(-c1nc(C)no1)n2-c1ccc(CNC(=O)C2(NC(=O)c3cccnc3F)CC2)cc1" 20 to 100 nM

Repeat with "Cc1nc(-c2c(Cl)c3ccccc3n2-c2ccc(CNC(=O)C3(NC(=O)c4ccnc(F)c4)CC3)cc2)no1" < 20 nM

---

molecular target: recombinant human B1 receptors (Homo sapiens, UniProt P46663); construct: host or cells: CHO (CHO-B1); test: Functional assay: antagonist potency by cytosolic calcium measurement (plate reader fluorimeter) in CHO-B1 cells, agonist LysDABK; assay type: cell-based; conditions: CHO-B1 cells, inhibition of LysDABK (EC80)-evoked [Ca2+]i elevation; read-out: B1 func.
A collection of molecules and their measured IC50

Solved entries (count: 8):
# Smiles Code, IC50
data = [
    ("Cn1nnc(-c2c(Cl)c3cc(Cl)ccc3n2-c2ccc(CNC(=O)C3(NC(=O)C(F)(F)F)CC3)c(F)c2)n1", "< 20 nM"),
    ("C#CCCC(=O)NC1(C(=O)NCc2ccc(-n3c(-c4noc(C)n4)c(Cl)c4ccccc43)cc2)CC1", "< 20 nM"),
    ("Cc1cc(C(=O)NC2(C(=O)NCc3ccc(-n4c(-c5noc(C)n5)c(Cl)c5ccccc54)cc3)CC2)n[nH]1", "20 to 100 nM"),
    ("Cc1nc(-c2c(Cl)c3ccccc3n2-c2ccc(CNC(=O)C3(NC(=O)c4cc(C5CC5)on4)CC3)cc2)no1", "< 20 nM"),
    ("CSc1ccc(C(=O)NC2(C(=O)NCc3ccc(-n4c(-c5noc(C)n5)c(Cl)c5ccccc54)cc3)CC2)s1", "20 to 100 nM"),
    ("Cc1nc(-c2c(Cl)c3cc(F)ccc3n2-c2ccc(CNC(=O)C3(NC(=O)c4cccnc4Cl)CC3)cc2)no1", "< 20 nM"),
    ("COc1cc(C(=O)NC2(C(=O)NCc3ccc(-n4c(-c5nc(C)no5)cc5cc(F)ccc54)cc3)CC2)on1", "< 20 nM"),
    ("Cc1nc(-c2c(Cl)c3ccccc3n2-c2ccc(CNC(=O)C3(NC(=O)c4conc4C)CC3)cc2)no1", "< 20 nM"),
]

Which IC50 is reported with recombinant human B1 receptors (Homo sapiens, UniProt P46663) for this entry: "COc1cc(C(=O)NC2(C(=O)NCc3ccc(-n4c(-c5noc(C)n5)cc5cc(Cl)ccc54)cc3)CC2)on1" ? < 20 nM
